Target: Glutamate NMDA receptor
Experiment: Antagonist activity at NMDA receptor in cerebellar granule neurons assessed as inhibition of glutamate-induced increase in intracellular calcium concentration by fluorometric assay
Assay type: functional, cell-based

SUBSTANCE_SMILES	IC50
CN(C)C12CC3CC(CC1C3)C2	> 500 µM
CNCC12CC3CC(CC1C3)C2	> 500 µM
NCC12CC3CC(CC1C3)C2	> 200 µM
CN(Cc1ccccc1)C12CC3(C)CC1CC3(C)C2	> 200 µM

---

Biological target: Glutamate NMDA receptor
Assay: Antagonist activity at NMDA receptor in cerebellar granule neurons assessed as inhibition of NMDA-induced increase in intracellular calcium concentration by fluorometric assay
Format: functional, cell-based
MEASURE: IC50

SUBSTANCE_SMILES	OBS_VALUE
Fc1ccc(CNC23CC4CC(CC2C4)C3)cc1	> 200 µM
CNCC12CC3(C)CC1CC3(C)C2	> 200 µM
NCC12CC3CC(CC1C3)C2	> 200 µM
